Source listed as patent US20210386729A1.

method-summary: Single oral dose plasma pharmacokinetics in healthy subjects
Type: in vivo, human
reported-conditions: human, 300 ug; healthy subjects, single oral dose 300 μg, fasted, plasma; mean
quantity-name: AUC(0-t) (ng·h/mL)
The figure you give is taken to be in ng·h/mL; do not add the unit.

Asked: // AUC(0-t) lookup, key: O=C(O)c1cc(F)c2nc(N3C4CC[C@H]3CC(OCc3c(-c5ccccc5OC(F)(F)F)noc3C3CC3)C4)sc2c1 (stereo partly shown)
Given back: 119

###

method-summary: Single oral dose plasma pharmacokinetics in healthy subjects
Format: in vivo, human
reported-conditions: human, 30 ug; healthy subjects, single oral dose 30 μg, fasted, plasma; mean; read-out: T1/2 (converted)
quantity-name: half-life

Asked: For O=C(O)c1cc(F)c2nc(N3C4CC[C@H]3CC(OCc3c(-c5ccccc5OC(F)(F)F)noc3C3CC3)C4)sc2c1 (stereo partly shown) , what is its reported half-life?
Given back: 13.7 h

###

method-summary: Single oral dose plasma pharmacokinetics in healthy subjects
Assay type: in vivo, human
reported-conditions: human, 3000 ug; healthy subjects, single oral dose 3000 μg, fasted, plasma; mean
quantity-name: Cmax
Numeric answer plus unit only.

Asked: So what does the record say about Cmax for O=C(O)c1cc(F)c2nc(N3C4CC[C@H]3CC(OCc3c(-c5ccccc5OC(F)(F)F)noc3C3CC3)C4)sc2c1 (stereo partly shown) ?
Given back: 54.2 ng/mL

###

method-summary: Pharmacokinetics in the chronic 2 week rat ANIT-induced cholestasis model
Type: in vivo
reported-conditions: male, Wistar, po, 0.01 mg/kg, day 13, serum
quantity-name: Cmax
Kindly write the number and append the unit.

Asked: Can you look up the measured Cmax of O=C(O)c1cc(F)c2nc(N3C4CC[C@H]3CC(OCc3c(-c5ccccc5OC(F)(F)F)noc3C3CC3)C4)sc2c1 (stereo partly shown) for me?
Given back: 0.39 ng/mL

###

method-summary: Multiple oral dose plasma pharmacokinetics in healthy subjects
Type: in vivo, human
reported-conditions: human, plasma, oral, 60 ug, healthy subjects, 60 μg qd, Day 13, plasma; mean; read-out: Cmax
quantity-name: Cmax
Quote the value and follow it with the unit of measurement.

Asked: Which Cmax value belongs to O=C(O)c1cc(F)c2nc(N3C4CC[C@H]3CC(OCc3c(-c5ccccc5OC(F)(F)F)noc3C3CC3)C4)sc2c1 (stereo partly shown) [Compound A] ?
Given back: 1.61 ng/mL

###

method-summary: Multiple oral dose plasma pharmacokinetics in healthy subjects
Type: in vivo, human
reported-conditions: human, plasma, oral, 60 ug, healthy subjects, 60 μg qd, Day 1, plasma; mean; read-out: Cmax
quantity-name: Cmax (ng/mL)
Just the number please, in ng/mL, no unit attached.

Asked: Query (compound): O=C(O)c1cc(F)c2nc(N3C4CC[C@H]3CC(OCc3c(-c5ccccc5OC(F)(F)F)noc3C3CC3)C4)sc2c1 (stereo partly shown) ; field requested: Cmax
Given back: 1.22

###

method-summary: Single oral dose plasma pharmacokinetics in healthy subjects
Format: in vivo, human
reported-conditions: human, 30 ug; healthy subjects, single oral dose 30 μg, fasted, plasma; mean
quantity-name: AUC(0-inf) (ng·h/mL)
Numeric answer only, unit ng·h/mL assumed.

Asked: Please report the recorded AUC(0-inf) for O=C(O)c1cc(F)c2nc(N3C4CC[C@H]3CC(OCc3c(-c5ccccc5OC(F)(F)F)noc3C3CC3)C4)sc2c1 (stereo partly shown) .
Given back: 13.4
